target: Gal(b1-3)[Fuc(a1-4)]GlcNAc; experiment: glycan array binding signal (z-score within array); higher = stronger binding; settings: glycan notation: IUPAC condensed, linker removed
The full list was thinned out, with the strongest signals kept by preference.
EXPERIMENTAL_READOUT: glycan array binding signal (z-score)
Answers are plain numbers.

Data request: Please give the measured glycan array binding signal (z-score) for this binder: PfulAvr4 2 (Pseudocercospora fuligena) (protein) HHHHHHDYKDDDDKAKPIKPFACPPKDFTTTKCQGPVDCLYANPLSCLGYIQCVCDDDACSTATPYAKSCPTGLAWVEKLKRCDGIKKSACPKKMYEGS
Data returned: -0.218
